Target: ERα (Homo sapiens)
Construct: endogenous in cells; host or cells: MCF-7
Sequence (P03372 whole entry): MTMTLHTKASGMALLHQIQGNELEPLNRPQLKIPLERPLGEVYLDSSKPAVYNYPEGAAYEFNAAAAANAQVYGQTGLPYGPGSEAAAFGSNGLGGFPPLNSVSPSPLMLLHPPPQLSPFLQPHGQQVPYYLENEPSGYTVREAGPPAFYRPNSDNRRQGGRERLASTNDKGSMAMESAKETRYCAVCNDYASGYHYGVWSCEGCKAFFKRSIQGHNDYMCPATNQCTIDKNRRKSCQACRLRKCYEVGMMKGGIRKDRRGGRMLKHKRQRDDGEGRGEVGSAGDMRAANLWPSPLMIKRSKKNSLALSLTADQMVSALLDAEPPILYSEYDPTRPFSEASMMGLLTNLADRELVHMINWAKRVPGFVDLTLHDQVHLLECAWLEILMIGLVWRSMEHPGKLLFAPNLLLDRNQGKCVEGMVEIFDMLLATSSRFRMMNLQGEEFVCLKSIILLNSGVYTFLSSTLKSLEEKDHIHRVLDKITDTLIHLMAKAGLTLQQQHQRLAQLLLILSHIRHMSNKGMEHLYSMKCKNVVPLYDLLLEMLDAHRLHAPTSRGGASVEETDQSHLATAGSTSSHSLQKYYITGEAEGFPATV
Assay: ER degradation in MCF-7 cells (Western blot)
Format: cell-based
Conditions: MCF7, Maximal ER degradation, read-out: Dmax
assay_metric: Dmax

CC/C(=C(\c1ccc(O)cc1)c1ccc(N2CCN(C(=O)N3CCC(CN4CCN(c5ccc6c(c5)CN(C5CCC(=O)NC5=O)C6=O)CC4)CC3)CC2)cc1)c1ccccc1 (stereo not drawn) = > 90%
CC/C(=C(\c1ccc(OCCN2CCN(C(=O)N3CCN(c4ccc5c(c4)CN(C4CCC(=O)NC4=O)C5=O)CC3)CC2)cc1)c1ccc(B(O)O)cc1)c1ccccc1 (stereo not drawn) = > 90%
CC/C(=C(\c1ccc(B(O)O)cc1)c1ccc(N2CCC(CN3CCN(c4ccc5c(c4)C(=O)N(C4CCC(=O)NC4=O)C5)CC3)CC2)cc1)c1ccccc1 (stereo not drawn) = > 75%
CC/C(=C(/c1ccc(B(O)O)cc1)c1ccc(N2CCC(CCN3CCN(c4ccc5c(c4)CN(C4CCC(=O)NC4=O)C5=O)CC3)CC2)cc1)c1ccccc1 (stereo not drawn) = > 90%
CC/C(=C(/c1ccc(OCCN2CCN(CC3CCN(c4ccc5c(c4)CN(C4CCC(=O)NC4=O)C5=O)CC3)CC2)cc1)c1ccc(B(O)O)cc1)c1ccccc1 (stereo not drawn) = > 90%

Continue with the next compound.
Look at this compound and give its reported Dmax. CC/C(=C(\c1ccc(O)cc1)c1ccc(OCCN2CCN(C(=O)N3CCN(c4ccc5c(c4)CN([C@H]4CCC(=O)NC4=O)C5=O)CC3)CC2)cc1)c1ccccc1
> 90%

Data origin, for the record: patent US20220348595A1
